Where these numbers come from: patent US20260308177A1

Test: p21 induction in HCT116 cells
Type: cell-based, human
Conditions: read-out: P21_EC50, 24 h, p21/GAPDH signal ratio, % activation vs internal reference WRN inhibitor
pEC50: −log10 of the molar value.
measuredMetric: pEC50

smilesString: C=C(C)c1nc2c(=O)c(N3CCN(C(=O)c4ncnc(C)c4O)CC3)c(CC)n(CC(=O)Nc3ccc(C(F)(F)F)cc3Cl)c2s1
measuredMetric: pEC50
testResult: 5.70 to 6.30

* * *

Target: human Werner helicase (WRN-BV08, amino acids 517-1235, L1074F) (Homo sapiens, UniProt Q14191, L1074F)
Construct: TEV-cleavable 8×His tag (C, cleaved yes); made in house; host or cells: Sf9 insect cells (baculovirus)
Sequence (Q14191 with tags, fused parts or gaps L1074F): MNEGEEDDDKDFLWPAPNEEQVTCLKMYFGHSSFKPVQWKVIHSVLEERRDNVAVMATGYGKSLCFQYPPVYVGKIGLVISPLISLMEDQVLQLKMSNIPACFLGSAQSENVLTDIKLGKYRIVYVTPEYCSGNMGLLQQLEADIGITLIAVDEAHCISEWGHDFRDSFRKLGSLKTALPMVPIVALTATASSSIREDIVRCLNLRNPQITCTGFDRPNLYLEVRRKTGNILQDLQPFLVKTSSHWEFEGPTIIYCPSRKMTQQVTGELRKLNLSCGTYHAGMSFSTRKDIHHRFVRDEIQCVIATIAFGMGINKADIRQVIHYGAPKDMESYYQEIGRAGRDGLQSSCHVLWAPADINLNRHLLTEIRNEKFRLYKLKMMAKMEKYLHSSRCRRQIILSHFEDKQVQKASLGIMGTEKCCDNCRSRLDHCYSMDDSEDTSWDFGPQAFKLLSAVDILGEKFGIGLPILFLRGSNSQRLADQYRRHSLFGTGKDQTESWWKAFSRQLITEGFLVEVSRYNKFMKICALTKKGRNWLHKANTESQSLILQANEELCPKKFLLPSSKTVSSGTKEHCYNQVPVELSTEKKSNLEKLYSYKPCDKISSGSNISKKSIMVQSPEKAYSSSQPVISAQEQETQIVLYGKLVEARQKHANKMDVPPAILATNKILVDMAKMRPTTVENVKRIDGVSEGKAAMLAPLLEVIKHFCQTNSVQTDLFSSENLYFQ
Assay: WRN (BV08) ADP-Glo Assay (ATPase inhibition)
Format: biochemical
pIC50: −log10 of the molar value.
measuredMetric: pIC50

smilesString: C=C(C)c1nc2c(=O)c(N3CCN(C(=O)c4ncnc(C)c4O)CC3)c(CC)n(CC(=O)Nc3ccc(C(F)(F)F)cc3Cl)c2s1
measuredMetric: pIC50
testResult: 7.30 to 8.30

* * *

Attribute: EC50
Target: p21 in HCT116 cells (Homo sapiens, UniProt Q14191)
Construct: p21 induction in-cell western, 24 h
Sequence (Q14191 whole entry): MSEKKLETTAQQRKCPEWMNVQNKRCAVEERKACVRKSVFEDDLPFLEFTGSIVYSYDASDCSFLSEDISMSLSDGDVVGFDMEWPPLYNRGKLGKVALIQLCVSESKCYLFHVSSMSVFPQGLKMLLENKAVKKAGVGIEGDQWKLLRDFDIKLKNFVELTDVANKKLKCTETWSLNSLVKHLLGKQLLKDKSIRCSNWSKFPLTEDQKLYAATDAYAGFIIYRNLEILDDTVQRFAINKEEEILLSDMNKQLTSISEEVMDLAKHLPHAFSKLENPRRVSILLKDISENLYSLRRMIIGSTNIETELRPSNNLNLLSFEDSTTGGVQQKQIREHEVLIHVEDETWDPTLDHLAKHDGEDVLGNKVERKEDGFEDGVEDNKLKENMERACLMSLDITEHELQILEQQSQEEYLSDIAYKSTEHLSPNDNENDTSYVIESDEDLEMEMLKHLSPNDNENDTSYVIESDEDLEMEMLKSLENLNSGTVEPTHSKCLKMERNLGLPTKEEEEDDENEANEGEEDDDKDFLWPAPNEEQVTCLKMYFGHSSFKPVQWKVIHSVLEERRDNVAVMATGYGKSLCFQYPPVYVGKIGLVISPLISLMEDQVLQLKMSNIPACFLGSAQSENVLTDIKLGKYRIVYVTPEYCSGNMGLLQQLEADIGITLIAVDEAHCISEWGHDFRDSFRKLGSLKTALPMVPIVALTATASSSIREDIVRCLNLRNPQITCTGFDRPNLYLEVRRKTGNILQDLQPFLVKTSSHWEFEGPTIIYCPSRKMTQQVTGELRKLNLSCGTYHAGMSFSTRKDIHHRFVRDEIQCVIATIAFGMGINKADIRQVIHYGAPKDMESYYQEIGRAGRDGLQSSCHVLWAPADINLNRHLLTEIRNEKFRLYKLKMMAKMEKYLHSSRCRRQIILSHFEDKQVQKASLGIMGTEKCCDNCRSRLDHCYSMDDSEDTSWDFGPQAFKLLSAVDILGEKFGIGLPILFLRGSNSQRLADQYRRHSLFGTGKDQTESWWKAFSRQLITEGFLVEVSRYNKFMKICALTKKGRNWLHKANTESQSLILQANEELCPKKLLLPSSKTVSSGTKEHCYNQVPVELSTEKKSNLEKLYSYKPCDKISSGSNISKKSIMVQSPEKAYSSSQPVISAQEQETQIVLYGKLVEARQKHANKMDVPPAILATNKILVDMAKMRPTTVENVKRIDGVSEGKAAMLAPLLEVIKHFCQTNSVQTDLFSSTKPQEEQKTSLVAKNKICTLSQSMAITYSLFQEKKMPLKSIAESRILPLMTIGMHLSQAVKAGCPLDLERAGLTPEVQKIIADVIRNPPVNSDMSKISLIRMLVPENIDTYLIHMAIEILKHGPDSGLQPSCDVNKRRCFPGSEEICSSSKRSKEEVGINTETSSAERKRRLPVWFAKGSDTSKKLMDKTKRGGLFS
Test: p21 induction in HCT116 cells
Details: 24 h, p21/GAPDH signal ratio, % activation vs internal reference WRN inhibitor, read-out: P21_EC50

molecule: CCc1c(N2CCN(C(=O)c3ncnc(C)c3O)CC2)c(=O)c2nc(C3=CCOCC3)sc2n1CC(=O)Nc1ccc(C(F)(F)F)cc1Cl [1-3]
EC50: 2000 to 5000 nM
--
molecule: CCc1c(N2CCN(C(=O)c3c(O)ccnc3OC)CC2)c(=O)c2nc(-c3ccnc(OC)c3)sc2n1CC(=O)Nc1ccc(C(F)(F)F)cc1Cl [Compound I-5]
EC50: 500 to 2000 nM
--
molecule: CCc1c(N2CCN(C(=O)c3ncnc(C)c3O)CC2)c(=O)c2nc(-c3ccnc(OC)c3)sc2n1CC(=O)Nc1ccc(C(F)(F)F)cc1Cl [Compound I-1]
EC50: 500 to 2000 nM
--
molecule: CCc1c(N2CCN(C(=O)c3ncnc(C)c3O)CC2)c(=O)c2nc(-c3cnn(C)c3)sc2n1CC(=O)Nc1ccc(C(F)(F)F)cc1Cl [Compound I-7]
EC50: > 5000 nM
--
molecule: CCc1c(N2CCN(C(=O)c3ncnc(C)c3O)CC2)c(=O)c2sc(-c3ccnc(OC)c3)nc2n1CC(=O)Nc1ccc(C(F)(F)F)cc1Cl [Compound I-2]
EC50: < 500 nM
--
molecule: CCc1c(N2CCN(C(=O)c3ncnc(C)c3O)CC2)c(=O)c2sc(-c3ccnc(OC)c3)nc2n1CC(=O)NC12CC(C(F)(F)F)(C1)C2 [Compound I-8]
EC50: > 5000 nM
--
molecule: CCc1c(N2CCN(C(=O)c3ncnc(C)c3O)CC2)c(=O)c2nc(N3CCCC3)sc2n1CC(=O)Nc1ccc(C(F)(F)F)cc1Cl [Compound I-4]
EC50: 2000 to 5000 nM
